// %cis at the photostationary state lookup, one value per entry
- ASSAY TEXT: Proportions of cis and trans at the photostationary state in DMSO from absorbance spectra (Ernst Fischer method)
- Format: physicochemical
- MEASUREMENT SETUP: 470 nm

Cc1cc(OCC(O)C(C)(C)C)ccc1/N=N/c1cccc(-c2ccc(CO)cc2)c1 (centres unmarked) [Compound 12b] : 29,61%
COC(=O)c1ccc(-c2cccc(/N=N/c3ccc(OCC(O)C(C)(C)C)cc3C)c2)c(C)c1 (centres unmarked) [Compound 10d] : 29,82%
Cc1cc(/N=N/c2cccc(-c3ccc(CO)cc3C)c2)ccc1OCC(O)C(C)(C)C (centres unmarked) [Compound 12c] : 28,95%

COC(=O)c1ccc(-c2cccc(/N=N/c3ccc(OCC(O)C(C)(C)C)c(C)c3)c2)cc1 (centres unmarked) [Compound 10a] yielded %cis at the photostationary state of 29,15%

Lab note: COC(=O)c1ccc(-c2cccc(/N=N/c3ccc(OCC(O)C(C)(C)C)c(C)c3)c2)c(C)c1 (centres unmarked) [Compound 10c] gave %cis at the photostationary state of 30,53%

%cis at the photostationary state reported for this molecule COC(=O)c1ccc(-c2cccc(/N=N/c3ccc(OCC(O)C(C)(C)C)cc3C)c2)cc1 (centres unmarked) [Compound 10b] : 34,89%

So, Cc1cc(/N=N/c2cccc(-c3ccc(C(=O)O)cc3)c2)ccc1OCC(O)C(C)(C)C (centres unmarked) [Compound 11a] ? Its %cis at the photostationary state was 29,80%

Notebook: Cc1cc(OCC(O)C(C)(C)C)ccc1/N=N/c1cccc(-c2ccc(CO)cc2C)c1 (centres unmarked) [Compound 12d] , %cis at the photostationary state read as 32,14%

###

- ASSAY TEXT: Proportions of cis and trans at the photostationary state in DMSO from absorbance spectra (Ernst Fischer method)
- Format: physicochemical
- MEASUREMENT SETUP: 500 nm
REPORTED ENDPOINT: %trans at the photostationary state

Solved entries:
Cc1cc(/N=N/c2cccc(-c3ccc(C(=O)O)cc3C)c2)ccc1OCC(O)C(C)(C)C (stereo not shown) [Compound 11c] : 71,82%
Cc1cc(OCC(O)C(C)(C)C)ccc1N=Nc1cccc(-c2ccc(C(=O)O)cc2)c1 (stereo not shown) [Compound 11b] : 67,19%
Cc1cc(/N=N/c2cccc(-c3ccc(CO)cc3)c2)ccc1OCC(O)C(C)(C)C (stereo not shown) [Compound 12a] : 65,97%

Query compound follows.
Documented %trans at the photostationary state of Cc1cc(OCC(O)C(C)(C)C)ccc1/N=N/c1cccc(-c2ccc(CO)cc2)c1 (stereo not shown) [Compound 12b] : 74,85%

###

- ASSAY TEXT: UV-Vis absorption spectra and thermal relaxation of the cis isomers in DMSO
- Type: physicochemical
- MEASUREMENT SETUP: 60 μM in 100% DMSO, 37 °C
REPORTED ENDPOINT: t 1/2 (thermal relaxation of cis) (h)

Below: 6 compounds and their reported t 1/2 (thermal relaxation of cis).
COC(=O)c1ccc(-c2cccc(/N=N/c3ccc(OCC(O)C(C)(C)C)cc3C)c2)cc1 (centres unmarked) [Compound 10b] : 7.6
Cc1cc(OCC(O)C(C)(C)C)ccc1/N=N/c1cccc(-c2ccc(CO)cc2)c1 (centres unmarked) [Compound 12b] : 6.8
COC(=O)c1ccc(-c2cccc(/N=N/c3ccc(OCC(O)C(C)(C)C)c(C)c3)c2)cc1 (centres unmarked) [Compound 10a] : 9.3
Cc1cc(OCC(O)C(C)(C)C)ccc1/N=N/c1cccc(-c2ccc(CO)cc2C)c1 (centres unmarked) [Compound 12d] : 8.2
COC(=O)c1ccc(-c2cccc(/N=N/c3ccc(OCC(O)C(C)(C)C)c(C)c3)c2)c(C)c1 (centres unmarked) [Compound 10c] : 12.5
Cc1cc(/N=N/c2cccc(-c3ccc(C(=O)O)cc3)c2)ccc1OCC(O)C(C)(C)C (centres unmarked) [Compound 11a] : 9.1

1: Cc1cc(/N=N/c2cccc(-c3ccc(CO)cc3)c2)ccc1OCC(O)C(C)(C)C (centres unmarked) [Compound 12a]
2: Cc1cc(OCC(O)C(C)(C)C)ccc1/N=N/c1cccc(-c2ccc(C(=O)O)cc2C)c1 (centres unmarked) [Compound 11d]
Incoming: Field: lower t 1/2 (thermal relaxation of cis) | Options: 1 / 2 Mark your answer with the label of the selected entry.
Outgoing: 1
(1: 9.1 h, 2: 17.7 h)

###

- ASSAY TEXT: Proportions of cis and trans at the photostationary state in DMSO from absorbance spectra (Ernst Fischer method)
- Format: physicochemical
- MEASUREMENT SETUP: 500 nm
REPORTED ENDPOINT: %cis at the photostationary state

Cc1cc(/N=N/c2cccc(-c3ccc(C(=O)O)cc3C)c2)ccc1OCC(O)C(C)(C)C (stereo not shown) [Compound 11c] : 28,18%

%cis at the photostationary state measured on Cc1cc(OCC(O)C(C)(C)C)ccc1/N=N/c1cccc(-c2ccc(CO)cc2)c1 (stereo not shown) [Compound 12b] = 25,15%

Noted for COC(=O)c1ccc(-c2cccc(/N=N/c3ccc(OCC(O)C(C)(C)C)c(C)c3)c2)c(C)c1 (stereo not shown) [Compound 10c] : its %cis at the photostationary state reads 26,82%

Lab note: Cc1cc(/N=N/c2cccc(-c3ccc(CO)cc3C)c2)ccc1OCC(O)C(C)(C)C (stereo not shown) [Compound 12c] gave %cis at the photostationary state of 30,48%

###

- ASSAY TEXT: UV-Vis absorption spectra and thermal relaxation of the cis isomers in DMSO
- Format: physicochemical
- MEASUREMENT SETUP: 60 μM in 100% DMSO, 37 °C; dark
REPORTED ENDPOINT: λπ–π* (trans) (nm)

Cc1cc(/N=N/c2cccc(-c3ccc(CO)cc3C)c2)ccc1OCC(O)C(C)(C)C (stereo not shown) [Compound 12c] : 364
COC(=O)c1ccc(-c2cccc(/N=N/c3ccc(OCC(O)C(C)(C)C)cc3C)c2)c(C)c1 (stereo not shown) [Compound 10d] : 360
Cc1cc(OCC(O)C(C)(C)C)ccc1/N=N/c1cccc(-c2ccc(CO)cc2)c1 (stereo not shown) [Compound 12b] : 362
Cc1cc(/N=N/c2cccc(-c3ccc(C(=O)O)cc3)c2)ccc1OCC(O)C(C)(C)C (stereo not shown) [Compound 11a] : 366

###

- ASSAY TEXT: Proportions of cis and trans at the photostationary state in DMSO from absorbance spectra (Ernst Fischer method)
- Type: physicochemical
- MEASUREMENT SETUP: 380 nm
REPORTED ENDPOINT: %cis at the photostationary state

Cc1cc(OCC(O)C(C)(C)C)ccc1/N=N/c1cccc(-c2ccc(C(=O)O)cc2C)c1 (stereo not drawn) [Compound 11d] : 95,58%
Cc1cc(OCC(O)C(C)(C)C)ccc1/N=N/c1cccc(-c2ccc(CO)cc2)c1 (stereo not drawn) [Compound 12b] : 95,15%
Cc1cc(/N=N/c2cccc(-c3ccc(C(=O)O)cc3)c2)ccc1OCC(O)C(C)(C)C (stereo not drawn) [Compound 11a] : 92,81%
COC(=O)c1ccc(-c2cccc(/N=N/c3ccc(OCC(O)C(C)(C)C)c(C)c3)c2)cc1 (stereo not drawn) [Compound 10a] : 91,83%

Quick note, %cis at the photostationary state for Cc1cc(/N=N/c2cccc(-c3ccc(CO)cc3C)c2)ccc1OCC(O)C(C)(C)C (stereo not drawn) [Compound 12c] landed at 95,69%

###

Parameter %cis at the photostationary state: see the listing below.
- ASSAY TEXT: Proportions of cis and trans at the photostationary state in DMSO from absorbance spectra (Ernst Fischer method)
- Assay type: physicochemical
- MEASUREMENT SETUP: 365 nm

Cc1cc(/N=N/c2cccc(-c3ccc(C(=O)O)cc3C)c2)ccc1OCC(O)C(C)(C)C (stereo not drawn) [Compound 11c] : 97,22%
Cc1cc(/N=N/c2cccc(-c3ccc(CO)cc3C)c2)ccc1OCC(O)C(C)(C)C (stereo not drawn) [Compound 12c] : 96,95%
COC(=O)c1ccc(-c2cccc(/N=N/c3ccc(OCC(O)C(C)(C)C)c(C)c3)c2)cc1 (stereo not drawn) [Compound 10a] : 93,70%
COC(=O)c1ccc(-c2cccc(/N=N/c3ccc(OCC(O)C(C)(C)C)cc3C)c2)c(C)c1 (stereo not drawn) [Compound 10d] : 96,30%
Cc1cc(/N=N/c2cccc(-c3ccc(C(=O)O)cc3)c2)ccc1OCC(O)C(C)(C)C (stereo not drawn) [Compound 11a] : 94,52%

GET /value?item= COC(=O)c1ccc(-c2cccc(/N=N/c3ccc(OCC(O)C(C)(C)C)c(C)c3)c2)c(C)c1 (stereo not drawn) [Compound 10c] &field=%cis at the photostationary state returns 97,00%

The compound identified as Cc1cc(OCC(O)C(C)(C)C)ccc1/N=N/c1cccc(-c2ccc(CO)cc2C)c1 (stereo not drawn) [Compound 12d] registered its %cis at the photostationary state at 96,92%

According to the records, this compound Cc1cc(OCC(O)C(C)(C)C)ccc1/N=N/c1cccc(-c2ccc(CO)cc2)c1 (stereo not drawn) [Compound 12b] displays %cis at the photostationary state of 96,19%

Noted for Cc1cc(/N=N/c2cccc(-c3ccc(CO)cc3)c2)ccc1OCC(O)C(C)(C)C (stereo not drawn) [Compound 12a] : its %cis at the photostationary state reads 97,06%

# compound Cc1cc(OCC(O)C(C)(C)C)ccc1N=Nc1cccc(-c2ccc(C(=O)O)cc2)c1 (stereo not drawn) [Compound 11b] ; its %cis at the photostationary state = 96,87%

# compound Cc1cc(OCC(O)C(C)(C)C)ccc1/N=N/c1cccc(-c2ccc(C(=O)O)cc2C)c1 (stereo not drawn) [Compound 11d] ; its %cis at the photostationary state = 96,79%

So for COC(=O)c1ccc(-c2cccc(/N=N/c3ccc(OCC(O)C(C)(C)C)cc3C)c2)cc1 (stereo not drawn) [Compound 10b] , the logged %cis at the photostationary state turned out to be 97,26%
